target: Sphingosine 1-phosphate receptor 1 (Homo sapiens); test: Agonist activity at human S1P1 receptor expressed in human U2OS cells assessed as beta-arrestin-mediated receptor internalization by beta-lactamase reporter assay; type: functional, cell-based; details: read-out: pEC50 (converted)
Sequence (P21453 whole entry): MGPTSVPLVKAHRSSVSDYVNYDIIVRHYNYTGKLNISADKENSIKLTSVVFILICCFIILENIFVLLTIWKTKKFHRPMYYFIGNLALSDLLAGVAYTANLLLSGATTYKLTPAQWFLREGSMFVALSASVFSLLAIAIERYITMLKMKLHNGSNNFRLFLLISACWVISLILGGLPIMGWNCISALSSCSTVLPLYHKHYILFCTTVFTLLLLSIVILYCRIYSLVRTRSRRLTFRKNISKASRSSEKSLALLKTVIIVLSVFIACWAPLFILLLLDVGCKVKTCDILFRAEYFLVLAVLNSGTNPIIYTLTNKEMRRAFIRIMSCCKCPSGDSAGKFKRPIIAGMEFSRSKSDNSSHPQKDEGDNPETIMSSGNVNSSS
test-readout: EC50 (nM)

CCCCN(C(=O)c1ccc(C(F)(F)F)cc1)c1nnc(-c2cccc3c2ccn3C)s1: 7.94

(a) CCCCN(C(=O)c1ccc(C(F)(F)F)cc1)c1nnc(-c2cccc(CN(C)C)c2)s1
(b) CCCCN(C(=O)c1ccc(Cl)cc1)c1nnc(-c2cccc(F)c2)s1
Lab note: check whether a or b shows the higher recorded EC50. Answer by quoting the chosen item's label.
a
(a: 631 nM, b: 126 nM)

(a) CCCCN(C(=O)c1ccc(C(F)(F)F)cc1)c1nnc(-c2ccc(CO)cc2)s1
(b) CCCCN(C(=O)c1ccc(C(F)(F)F)cc1)c1nnc(-c2ccc(F)c3[nH]ccc23)s1
Looking only at measured EC50, which entry is lower, a or b ? Refer to your chosen entry by its label in the reply.
b
(b: 6.31 nM, a: 12.6 nM)

Provenance of the data: ChEMBL document CHEMBL2010738
